# assay info: compound autofluorescence in calcium buffer – biochemical, fluorescence, no RTF in test wells, artefact control for cardiac thin filament activator project, dose response (AID 504697);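 note: emission near 535 nm under roughly 485 nm excitation as for IANBD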
# cond: compound-only fluorescence in RTF assay buffer with Ca2+ (no RTF in test wells), artifact counterscreen
Active and inactive are the calls of the source.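 Rule for the calls: active = EC50 at or below 10 µM; inactive = EC50 above 10 µM.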
Give one outcome, nothing more. List: True (active), False (inactive)

Study these solved cases before continuing.
compound	group
Cc1ccc(S(=O)(=O)NCCCCCC(=O)Nc2ccccc2C)cc1	False
C=CCN1C(=O)c2ccccc2NC1c1cc(Br)cs1 (stereo unspecified)	False

Exercise: For this compound, state the assay outcome: CC(=O)Oc1ccc(NC(=O)Cc2ccccc2)c(C(=O)O)c1
Key: False

Exercise: So what was the verdict on N#C/C(=C\c1ccc(-c2ccc(F)cc2)o1)C(=O)Nc1nc(-c2cccs2)cs1 in this test?
Key: False

Exercise: Assay result, entry Cc1nnc(N/N=C/c2ccc(O)c([N+](=O)[O-])c2)[nH]c1=O — outcome?
Key: False

Exercise: For CCOc1cc(/C=C2\N=C(SC(C)C(N)=O)N(c3ccc(OC(F)F)cc3)C2=O)ccc1O (stereo unspecified) , what call appears in the results of this test?
Key: False

Exercise: Answer briefly: the call reported for N#Cc1ccc(S(=O)(=O)NC2CCCCNC2=O)cc1 (stereo unspecified) in this assay.
Key: False

Exercise: Which result was noted for this compound in the test: Fc1ccc(-c2[nH]ncc2CN(CC2CCC2)CC2CCCO2)c(F)c1 (stereo unspecified)
Key: False

Exercise: Lab log entry: Cc1ccc(-c2ccc(OC(=O)c3ccc(=O)[nH]c3)c(C)c2)cc1 — outcome as called in the assay?
Key: False

Exercise: Test call, this compound: N#C/C(=C\c1ccc(N2CCOCC2)o1)c1nc2ccccc2[nH]1
Key: True

Exercise: Please state the recorded outcome for this compound: Cc1cc(/C=C2\SC(=S)N(C)C2=O)c(C)n1-c1ccccc1O
Key: False
